Measured values drawn from paper PMC3416781 for this set.

Molecular target: AlinCSP1 (Adelphocoris lineolatus, UniProt J7EJ71)
Sequence (J7EJ71 entry or part of it): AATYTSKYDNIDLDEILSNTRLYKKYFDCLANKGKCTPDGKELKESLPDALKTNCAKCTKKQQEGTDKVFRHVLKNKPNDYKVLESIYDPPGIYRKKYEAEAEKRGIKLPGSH
Assay: biochemical
Format: binding
Settings: KD (µM) AlinCSP1, 1-NPN and protein at 2 µM, 50 mM Tris-HCl pH 7.4; KD calculated from IC50; mean of three measurements
MEASUREMENT KIND: Kd
Returns: string containing the numeric result and its unit.

Worked examples follow.
COMPOUND | MEASUREMENT KIND | RESULT
CC/C=C\CCO [(Z)-3-Hexen-1-ol] | Kd | 12.5 µM
C=C1CC/C=C(\C)CC[C@@H]2[C@@H]1CC2(C)C [β-Caryophyllene] | Kd | 9.22 µM
CCOC(=O)Cc1ccccc1 [Ethyl phenylacetate] | Kd | 27.3 µM
COC(=O)c1ccccc1O [Methyl salicylate] | Kd | 8.67 µM
CCCCOC(C)=O [Butyl acetate] | Kd | 26.6 µM
O=Cc1ccccc1 [Benzaldehyde] | Kd | 27.5 µM
CCCCC(C)=O [2-Hexanone] | Kd | 19.5 µM
c1ccc2[nH]ccc2c1 [Indole] | Kd | 27.1 µM
CC1(C)[C@@H]2CC[C@@]1(C)[C@H](O)C2 (racemic) [Isoborneol] | Kd | 24.2 µM
COC(=O)Cc1ccccc1 [Methyl phenylacetate] | Kd | 32.1 µM

Kd recorded for this compound, CCC/C=C/C=O [(E)-2-Hexen-1-al] , is 11.3 µM

Kd recorded for this compound, C=CC(=O)OCCCC [Butyl acrylate] , is 38.5 µM

Kd recorded for this compound, C=C1CCC2CC1C2(C)C (stereo not drawn) [β-Pinene] , is 7.07 µM

----------
Test system: A. lineolatus antennae
Test: Electroantennogram (EAG) recordings
Design: species or system Adelphocoris lineolatus
Details: male and female adult antennae; 10% (v/v) in paraffin oil, normalized to 2-octanone; good ligand = more than 50% of 2-octanone response
MEASUREMENT KIND: EAG response in words

COMPOUND | RESULT
C=C1CC/C=C(\C)CC[C@@H]2[C@@H]1CC2(C)C [β-Caryophyllene] | no notable EAG response
C/C1=C\CC/C(C)=C/CC(C)(C)/C=C/C1 [α-Humulene] | no notable EAG response

----------
Biological target: AlinCSP1 (Adelphocoris lineolatus, UniProt J7EJ71)
Test: biochemical
Format: binding
Details: KD (µM) AlinCSP1, given as u.d., u.d. = KD not calculated because IC50>50 µM
# Kd per entry

Worked examples follow.
COMPOUND | Kd
CC(C)=CCC/C(C)=C/C=O [Citral] | > 50 µM
CC1=CC=C(C(C)C)CC1 [α-Terpinene] | > 50 µM

# input for lookup
Kd recorded for this compound, C=CC(C)(O)CCC=C(C)C (stereo not drawn) [Linalool] , is > 50 µM

----------
# Kd per entry
Target: AlinCSP3 (Adelphocoris lineolatus, UniProt E7BLG4)
Sequence (E7BLG4 entry or part of it): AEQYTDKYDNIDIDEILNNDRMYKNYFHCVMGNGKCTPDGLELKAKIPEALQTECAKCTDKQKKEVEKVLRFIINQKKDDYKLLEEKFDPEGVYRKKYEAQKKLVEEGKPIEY
Assay: biochemical
Type: binding
Details: KD (µM) AlinCSP3, given as u.d., u.d. = KD not calculated because IC50>50 µM

Kd recorded for this molecule, CC(C)=CCC/C(C)=C/C=O [Citral] , is > 50 µM

Kd recorded for this molecule, C=CC(C)(O)CCC=C(C)C (centres unmarked) [Linalool] , is > 50 µM

----------
Target: UniProt E7BLG4
Assay: biochemical
Format: binding
Conditions: KD (µM) AlinCSP3, 1-NPN and protein at 2 µM, 50 mM Tris-HCl pH 7.4; KD calculated from IC50; mean of three measurements
# Kd per entry
Provide the reading as a plain figure in µM.

Worked examples follow.
COMPOUND | SYSTEM NAME | Kd, µM
CC1(C)[C@@H]2CC[C@@]1(C)[C@H](O)C2 (racemic) | UniProt E7BLG4 | 28.6
O=Cc1ccccc1 | UniProt E7BLG4 | 24
C=C1CCC2CC1C2(C)C (centres unmarked) | UniProt E7BLG4 | 12.4

Kd recorded for this compound, CCC/C=C/C=O [(E)-2-Hexen-1-al] , is 14.5

Kd recorded for this compound, C=C1CC/C=C(\C)CC[C@@H]2[C@@H]1CC2(C)C , is 12.3
